The reported numbers originate from PubChem BioAssay AID1240.

# Subject Of Test: Bcl-2-like protein 10 (Homo sapiens)
# Assay Protocol: TR3 peptide-Bcl-B binding displacers, biochemical primary FP assay, phenotype converters (AID 1240);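 further: 0% = Bcl-B with tracer peptide and DMSO and 100% = tracer peptide lacking Bcl-B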
# Particulars: GST-Bcl-B / FITC-TR3 peptide fluorescence polarization; stronger effect = higher value; compound at 3.75 mg/L
Hit rate of the full screen: of about 50,000 compounds, about 800 (1.6%) showed an effect of 50% or more. The sample holds strong results, similar compounds and a random draw of the others, so the mix is not that of the screen.
Value Kind: displacement (%)

{"columns": ["Smiles Representation", "Value Kind", "Reported Value"],
 "data": [
  ["COc1ccc(-n2c(O)c(C=Nc3ccc(Cl)cc3)c(=O)[nH]c2=O)cc1", "displacement", 14.3],
  ["COc1ccc(-n2c(O)c(C=NCc3ccc(F)cc3)c(=O)[nH]c2=O)cc1", "displacement", 12.4],
  ["O=c1c2c(nc3cc(-c4cccc(F)c4)[nH]n13)CCS2", "displacement", 9.2],
  ["O=C1NC(=O)C(=Cc2ccc(OC(=O)c3cccc([N+](=O)[O-])c3)cc2)C(=O)N1", "displacement", 1.8],
  ["O=c1c2c(nc3cc(-c4ccc(Br)cc4)[nH]n13)CCS2", "displacement", -9.1],
  ["COc1ccc(/C=C/C(=O)c2cccc([N+](=O)[O-])c2)cc1", "displacement", 14.9],
  ["COc1ccc(CN=Cc2c(O)n(-c3cccc(Cl)c3)c(=O)[nH]c2=O)cc1", "displacement", 81.4],
  ["Cc1ccc(C(=O)/C=C/c2ccc(-c3ccc(Cl)cc3)o2)cc1", "displacement", 17.9],
  ["N#C/C(=C\\c1ccc(-c2cccc(Cl)c2)o1)c1ccc(Cl)cc1", "displacement", -3.8],
  ["Cc1cccc(C(=O)Oc2ccc(/C=C3/N=C(c4ccccc4)OC3=O)cc2)c1", "displacement", 0.5],
  ["COc1cc(CN=Cc2c(O)n(-c3ccc(F)cc3)c(=O)[nH]c2=O)cc(OC)c1", "displacement", 84.7],
  ["Cc1ccc(N=Cc2c(O)n(-c3ccccc3)c(=O)[nH]c2=O)cc1", "displacement", -5.6],
  ["N#C/C(=C\\c1ccc(-c2ccc(Cl)cc2)o1)c1ccc(Cl)cc1", "displacement", 123],
  ["O=C(Nc1cc(Br)cc2cccnc12)c1ccc(Cl)cc1", "displacement", -7.2],
  ["O=c1c2c(nc3cc(-c4ccc(I)cc4)[nH]n13)CCS2", "displacement", 97.5],
  ["N#C/C(=C\\c1ccc(I)o1)c1ccccc1", "displacement", -34],
  ["COc1ccc(C(=O)/C=C/c2ccc(-c3ccccc3[N+](=O)[O-])o2)cc1", "displacement", 13.8],
  ["Cc1cc2nc(-c3ccc(NC(=O)COc4ccccc4[N+](=O)[O-])cc3)oc2cc1C", "displacement", -0.7],
  ["N#C/C(=C/c1ccc(I)o1)c1ccc(Cl)cc1", "displacement", -24.1],
  ["O=C(COc1ccccc1[N+](=O)[O-])Nc1cc(-c2nc3ccccc3o2)ccc1Cl", "displacement", 91.6],
  ["O/N=C\\c1ccc(-c2ccc(Cl)c(Cl)c2)o1", "displacement", -7.3],
  ["O=c1c2c(nc3cc(-c4cccc(Cl)c4)[nH]n13)CCS2", "displacement", 34.8]
]}
